- TEST DESCRIPTION: Tanguay_ZF_120hpf_PIG_legacy: (Legacy) Oregon State University Tanguay Lab 120 Hour Post-fertilization zebrafish Assay for Pigmentation Malformation (AID 2283650);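 also: dechorionated Tropical 5D zebrafish embryos exposed singly from 6 to 120 hpf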
Results filed as inconclusive are left out. Calls of active or inactive are those of the source. The calls were made as follows: active = hit-call score of the fitted dose curve at least 0.9, where 1 is the maximum; inconclusive = response in the unintended direction; inactive = score below 0.9.
Classes used: active, inactive

>  <COMPOUND>
Cc1cc(Cl)ccc1OCC(=O)O

>  <CATEGORY>
inactive

$$$$
>  <COMPOUND>
C=CCC1=C(C)C(OC(=O)C2C(C=C(C)C)C2(C)C)CC1=O (configuration not stated)

>  <CATEGORY>
inactive

$$$$
>  <COMPOUND>
CCOC(=O)C(Cl)Cc1cc(-n2nc(C)n(C(F)F)c2=O)c(F)cc1Cl (configuration not stated)

>  <CATEGORY>
active

$$$$
>  <COMPOUND>
COC(=O)C=C(C)OP(=O)(OC)OC

>  <CATEGORY>
inactive

$$$$
>  <COMPOUND>
COC(=O)c1ccccc1C(=O)OC

>  <CATEGORY>
inactive

$$$$
>  <COMPOUND>
CCON=C(CC)C1=C(O)CC(c2c(C)cc(C)cc2C)CC1=O (configuration not stated)

>  <CATEGORY>
inactive

$$$$
>  <COMPOUND>
OC(c1ccc(Cl)cc1)(c1cncnc1)c1ccccc1Cl (configuration not stated)

>  <CATEGORY>
inactive

$$$$
>  <COMPOUND>
COC(=O)N(OC)c1ccccc1COc1ccn(-c2ccc(Cl)cc2)n1

>  <CATEGORY>
inactive

$$$$
>  <COMPOUND>
C=CCC1=C(C)[C@@H](OC(=O)[C@@H]2[C@@H](C=C(C)C)C2(C)C)CC1=O

>  <CATEGORY>
inactive

$$$$
>  <COMPOUND>
CO/C=C(/C(=O)OC)c1ccccc1Oc1cc(Oc2ccccc2C#N)ncn1

>  <CATEGORY>
inactive

$$$$
>  <COMPOUND>
CN(C)C(=S)SSC(=S)N(C)C

>  <CATEGORY>
inactive

$$$$
>  <COMPOUND>
CC1=C(C(=O)Nc2ccccc2)SCCO1

>  <CATEGORY>
inactive

$$$$
